- EXPERIMENTAL_SYSTEM: human CSNK1A1 (Homo sapiens (Human), UniProt P48729)
- Sequence (P48729 whole entry): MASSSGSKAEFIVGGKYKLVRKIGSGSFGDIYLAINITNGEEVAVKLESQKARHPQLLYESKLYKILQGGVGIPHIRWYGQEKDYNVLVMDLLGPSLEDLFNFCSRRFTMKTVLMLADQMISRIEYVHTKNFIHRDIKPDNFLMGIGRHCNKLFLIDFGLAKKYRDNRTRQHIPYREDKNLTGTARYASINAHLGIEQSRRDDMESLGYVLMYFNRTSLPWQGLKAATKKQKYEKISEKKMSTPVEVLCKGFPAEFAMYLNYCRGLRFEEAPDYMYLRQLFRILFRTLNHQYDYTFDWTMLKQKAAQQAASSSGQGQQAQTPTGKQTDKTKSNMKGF
- ASSAY_EXPLANATION: CSNK1A1 High ATP Assay (ADP-Glo, 1 mM ATP)
- Assay type: biochemical
- PARTICULARS: read-out: CSNK1A1 high ATP assay IC50 [mol/l] (median)
Threshold 100 nM: IC50 strictly smaller gives Yes, otherwise No.

Query: Just wondering, is IC50 of CC(C(=O)Nc1cc(-c2[nH]c3c(c2Nc2ccccc2Cl)C(=O)NCC3)ccn1)c1ccc(F)cc1 (stereo not shown) [Example 14] below 100 nM?
Result: Yes

Query: # check: IC50 < 100 nM for CC1Cc2[nH]c(-c3ccnc(NC(=O)Cc4ccncc4)c3)c(Nc3ccccc3)c2C(=O)N1C (single isomer, unassigned; (+)) [Example 98]
Result: No

Query: Report whether reported IC50 is lower than 100 nM (strictly) for CC1(C)Cc2[nH]c(-c3ccnc(NC(=O)C(CNC(=O)OC(C)(C)C)c4ccc(F)cc4)c3)c(Nc3ccccc3)c2C(=O)N1 (racemic)
Result: No

Query: Take the compound CC1(C)Cc2[nH]c(-c3ccnc(NC(=O)C(CC(F)F)c4ccc(F)cc4)c3)c(Nc3cccc(F)c3Cl)c2C(=O)N1 (single isomer, unassigned; (-)) [Example 110] and say whether its IC50 is less than 100 nM.
Result: No

Query: Hello, I'm reviewing records and need to know if IC50 of CC1(C)Cc2[nH]c(-c3ccnc(NC(=O)C(CC(F)F)c4ccc(F)cc4)c3)c(Nc3cccc(F)c3Cl)c2C(=O)N1 (single isomer, unassigned; (+)) [Example 111] is below 100 nM. Could you check?
Result: No

Query: Please determine if CC(C(=O)Nc1cc(-c2[nH]c3c(c2Nc2ccccc2F)C(=O)N(C)CC3)ccn1)c1ccc(F)cc1 (single isomer, unassigned) [Example 42] is below 100 nM in terms of IC50.
Result: Yes

Query: Strictly below 100 nM in IC50? CN1C(=O)c2c([nH]c(-c3ccnc(NC(=O)C(CC(F)F)c4ccc(F)cc4)c3)c2Nc2ccccc2F)CC1(C)C (single isomer, unassigned) [Example 47]
Result: No

Query: Consider the compound CN1CCc2[nH]c(-c3ccnc(NC(=O)Cc4ccc(N(C)C)cc4)c3)c(Nc3ccccc3)c2C1=O . Is its IC50 strictly less than 100 nM?
Result: No

Query: # TODO verify IC50 < 100 nM strictly for this compound: CC1(C)Cc2[nH]c(-c3ccnc(NC(=O)Cc4cccnc4)c3)c(Nc3ccccc3)c2C(=O)N1
Result: Yes

Query: Criterion: IC50 strictly below 100 nM. Is it met by Cc1ccccc1Nc1c(-c2ccnc(NC(=O)C(CC(F)F)c3ccc(F)cc3)c2)[nH]c2c1C(=O)NC1(CCC1)C2 (single isomer, unassigned; enantiomer 1) [Example 144] ?
Result: No

Query: Determine whether this compound shows IC50 lower than 100 nM (ties excluded): CC1Cc2[nH]c(-c3ccnc(NC(=O)Cc4ccc(F)cc4)c3)c(Nc3ccccc3)c2C(=O)N1C (racemic) [Example 88]
Result: Yes

Query: Threshold test, IC50 < 100 nM: O=C(Cc1ccc(F)cc1)Nc1cc(-c2[nH]c3c(c2Nc2cccc(F)c2Cl)C(=O)NC2(CCC2)C3)ccn1
Result: Yes

Query: Below 100 nM on IC50? Entry CC1Cc2[nH]c(-c3ccnc(NC(=O)C(CC(F)F)c4ccc(F)cc4)c3)c(Nc3ccccc3F)c2C(=O)N1C (single isomer, unassigned; (-)) [Example 104]
Result: No

Query: Hello, is IC50 of the following compound strictly smaller than 100 nM? COCCNC(=O)c1ccc(CC(=O)Nc2cc(-c3[nH]c4c(c3Nc3ccccc3)C(=O)N(C)CC4)ccn2)cc1
Result: Yes

Query: Hello, is IC50 of the following compound strictly smaller than 100 nM? CC1(C)Cc2[nH]c(-c3ccnc(NC(=O)C(CC(F)F)c4ccc(F)cc4)c3)c(Nc3cccc(F)c3)c2C(=O)N1 (single isomer, unassigned; enantiomer 1) [Example 120]
Result: No

Query: Is 100 nM strictly greater than the compound's reported IC50? compound: CN(C)CCCC(C(=O)Nc1cc(-c2[nH]c3c(c2Nc2ccccc2)C(=O)N(C)CC3)ccn1)c1ccccc1 (single isomer, unassigned; (-)) [Example 59]
Result: No

---

- EXPERIMENTAL_SYSTEM: human CSNK1D (Homo sapiens (Human), UniProt P48730)
- Sequence (P48730 whole entry): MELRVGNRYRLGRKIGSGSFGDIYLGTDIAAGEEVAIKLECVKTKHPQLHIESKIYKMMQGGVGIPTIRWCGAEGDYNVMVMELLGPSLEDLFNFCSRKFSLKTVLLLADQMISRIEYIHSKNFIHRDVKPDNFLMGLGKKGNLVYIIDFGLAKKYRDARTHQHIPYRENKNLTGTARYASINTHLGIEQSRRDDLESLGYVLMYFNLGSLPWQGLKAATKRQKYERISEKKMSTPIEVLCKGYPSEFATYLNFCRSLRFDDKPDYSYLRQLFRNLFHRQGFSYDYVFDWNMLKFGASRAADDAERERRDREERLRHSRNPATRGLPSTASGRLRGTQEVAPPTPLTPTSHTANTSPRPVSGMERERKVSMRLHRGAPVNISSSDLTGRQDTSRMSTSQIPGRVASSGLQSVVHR
- ASSAY_EXPLANATION: CSNK1D Assay (ADP-Glo, 1 μM ATP)
- Format: biochemical
- PARTICULARS: read-out: CSNK1D IC50 [mol/l] (median)
So I've got a bunch of molecules here, and I need their log10 IC50 values.
Heads up: the numbers are on a log10 scale; they represent IC50 in nM.

Query: Look at this molecule and give its reported log10 IC50. CC(C(=O)Nc1cc(-c2[nH]c3c(c2Nc2ccccc2)C(=O)N(C)CC3)ccn1)c1ccncc1 (single isomer, unassigned) [Example 74]
Result: 1.74

Query: What does the data say about its log10 IC50? Entry: CC1(C)Cc2[nH]c(-c3ccnc(NC(=O)C(CC(F)F)c4ccc(F)cc4)c3)c(Nc3cccc(F)c3Cl)c2C(=O)N1 (single isomer, unassigned; (+)) [Example 111]
Result: 1.01

Query: Given the entry CN1CCc2[nH]c(-c3ccnc(NC(=O)C(CC(F)F)c4ccc(F)cc4)c3)c(Nc3ccccc3)c2C1=O (single isomer, unassigned; (+)) [Example 63] , report its measured log10 IC50.
Result: 0.60

Query: Reported log10 IC50, molecule CN1CCc2[nH]c(-c3ccnc(NC(=O)Cc4ccc(C(F)(F)F)cc4)c3)c(Nc3ccccc3)c2C1=O : ____
Result: 0.75

Query: I am curious: what log10 IC50 value has been reported for CN(C)CCNC(=O)c1ccc(CC(=O)Nc2cc(-c3[nH]c4c(c3Nc3ccccc3)C(=O)N(C)CC4)ccn2)cc1 ?
Result: 0.85

Query: Which log10 IC50 is reported for this molecule? Cc1ccc(CC(=O)Nc2cc(-c3[nH]c4c(c3Nc3ccccc3)C(=O)N(C)CC4)ccn2)cc1
Result: 0.56

Query: Any idea what log10 IC50 was measured for CC1Cc2[nH]c(-c3ccnc(NC(=O)Cc4ccncc4)c3)c(Nc3ccccc3)c2C(=O)N1C (single isomer, unassigned; (+)) [Example 98] ?
Result: 0.79

Query: # log10 IC50 lookup, item Cc1ccccc1Nc1c(-c2ccnc(NC(=O)C(CC(F)F)c3ccc(F)cc3)c2)[nH]c2c1C(=O)NC(C)(C)C2 (racemic) [Example 135]
Result: 1.30

Query: I would be grateful if you could share the reported log10 IC50 for Cc1ccccc1Nc1c(-c2ccnc(NC(=O)C(CC(F)F)c3ccc(F)cc3)c2)[nH]c2c1C(=O)NC1(CCC1)C2 (racemic) [Example 143] .
Result: 1.26

Query: // log10 IC50 lookup, key: CC1(C)Cc2[nH]c(-c3ccnc(NC(=O)C(CC(F)F)c4ccc(F)cc4)c3)c(Nc3ccccc3)c2C(=O)N1 (single isomer, unassigned; (+)) [Example 49]
Result: 0.86

Query: What value of log10 IC50 has been reported for the following molecule? CC1Cc2[nH]c(-c3ccnc(NC(=O)Cc4ccc(F)cc4)c3)c(Nc3ccccc3F)c2C(=O)N1C (racemic) [Example 100]
Result: 1.19

Query: What value of measured log10 IC50 is listed for COCCNC(=O)c1ccc(CC(=O)Nc2cc(-c3[nH]c4c(c3Nc3ccccc3)C(=O)N(C)CC4)ccn2)cc1 ?
Result: 0.90

Query: Entry O=C1NC2(CC2)Cc2[nH]c(-c3ccnc(NC(=O)C(CC(F)F)c4ccc(F)cc4)c3)c(Nc3ccccc3)c21 (racemic) [Example 147] has what log10 IC50?
Result: 1.06

Query: What does the record list as log10 IC50 for CC1Cc2[nH]c(-c3ccnc(NC(=O)Cc4ccc(F)cc4)c3)c(Nc3ccccc3F)c2C(=O)N1C (single isomer, unassigned; (+)) [Example 101] ?
Result: 0.87

Query: May I ask what log10 IC50 has been recorded for Cc1ccccc1Nc1c(-c2ccnc(NC(=O)C(CC(F)F)c3ccc(F)cc3)c2)[nH]c2c1C(=O)NC1(CCC1)C2 (single isomer, unassigned; enantiomer 2) [Example 145] ?
Result: 0.91

Query: Return reported log10 IC50; argument: CC(C(=O)Nc1cc(-c2[nH]c3c(c2Nc2ccccc2)C(=O)NCC3)ccn1)c1ccc(F)cc1 (single isomer, unassigned) [Example 11]
Result: 1.49

---

- EXPERIMENTAL_SYSTEM: UniProt P48729
- ASSAY_EXPLANATION: CSNK1A1 High ATP Assay (ADP-Glo, 1 mM ATP)
- Type: biochemical
- PARTICULARS: read-out: CSNK1A1 high ATP assay IC50 [mol/l] (median)
I'd be grateful if you could share measured IC50 for these entries.
Your answer is read as nM, so omit the unit and give the number.

Query: So what does the record say about IC50 for O=C(Cc1ccc(F)cc1)Nc1cc(-c2[nH]c3c(c2Nc2ccccc2)C(=O)N(CC2CC2)CC3)ccn1 [Example 20] ?
Result: 1660

Query: Can you look up the measured IC50 of CN1CCc2[nH]c(-c3ccnc(NC(=O)C(CC(F)F)c4ccccc4)c3)c(Nc3ccccc3)c2C1=O (stereo not shown) [Example 33] for me?
Result: 72.2

Query: // query IC50 value for entry CN1CCc2[nH]c(-c3ccnc(NC(=O)C(CO)c4ccc(F)cc4)c3)c(Nc3ccccc3)c2C1=O (single isomer, unassigned) [Example 18]
Result: 1790

Query: Would you mind telling me what IC50 value was observed for O=C1NC2(CCC2)Cc2[nH]c(-c3ccnc(NC(=O)C(CC(F)F)c4ccc(F)cc4)c3)c(Nc3cccc(F)c3Cl)c21 (single isomer, unassigned; enantiomer 2) [Example 125] ?
Result: 12.1

Query: For the compound CC(C(=O)Nc1cc(-c2[nH]c3c(c2Nc2ccccc2)C(=O)NCC3)ccn1)c1ccc(F)cc1 (single isomer, unassigned) [Example 11] , what IC50 is on record?
Result: 3970

Query: // returns reported IC50 for input O=C1NC2(CC2)Cc2[nH]c(-c3ccnc(NC(=O)C(CC(F)F)c4ccc(F)cc4)c3)c(Nc3ccccc3)c21 (single isomer, unassigned; enantiomer 2) [Example 149]
Result: 473

Query: Report IC50 for CCC(C(=O)Nc1cc(-c2[nH]c3c(c2Nc2ccccc2)C(=O)N(C)CC3)ccn1)c1ccc(F)cc1 (racemic) [Example 75] please.
Result: 164

Query: Given CN1CCc2[nH]c(-c3ccnc(NC(=O)Cc4cccnc4)c3)c(Nc3ccccc3)c2C1=O [Example 67] , state its recorded IC50.
Result: 44.6

Query: What value of measured IC50 is listed for CC1(C)Cc2[nH]c(-c3ccnc(NC(=O)C(CC(F)F)c4ccc(F)cc4)c3)c(Nc3cccc(F)n3)c2C(=O)N1 (single isomer, unassigned; enantiomer 1) [Example 129] ?
Result: 6.37

Query: Look up IC50 for this compound: CN1CCc2[nH]c(-c3ccnc(NC(=O)C(CO)c4ccc(F)cc4)c3)c(Nc3ccccc3)c2C1=O (single isomer, unassigned) [Example 19]
Result: 10.6

Query: Request the reported IC50 associated with CC1Cc2[nH]c(-c3ccnc(NC(=O)Cc4ccc(F)cc4)c3)c(Nc3ccccc3F)c2C(=O)N1C (single isomer, unassigned; (-)) [Example 102]
Result: 51

Query: // IC50 lookup, key: CC(C(=O)Nc1cc(-c2[nH]c3c(c2Nc2ccccc2)C(=O)N(C)C(C)C3)ccn1)c1ccc(F)cc1 (single isomer, unassigned; (+)) [Example 91]
Result: 693
